- test_name: Human HepG2 cell viability assay in 384 well format
- Format: toxicity, cell-based
- Parameters: dose 125 nL, time 70.5 hour; concentration not given beside the values
- stated_conditions: HepG2 cells, read-out: Inhibition
Listed next: entries and their corresponding cytotoxicity at 70.5 h.
Field: numeric (%). Do not append units.

In [3]: df
Out[3]:
                                   compound        measurement_kind  obs_value
0  COCC1CN(CC2CC2)Cc2nn(CC3CC3)cc21 (stereo unspecified)  cytotoxicity at 70.5 h       12.3
1  O=C(c1cc[nH]n1)N1CCCC1c1cncc(CN2CCOCC2)n1 (stereo unspecified)  cytotoxicity at 70.5 h      -4.87
2             C[C@H](N)Cn1nc(-c2cccs2)oc1=O  cytotoxicity at 70.5 h      -1.53
3  Cc1nc(N)nc(C)c1CC(=O)N1CCC2(CC1)OCCCC2O (stereo unspecified)  cytotoxicity at 70.5 h      -13.9
4   O=C(NC1CCCCC1)N1CCc2onc(COc3cccnc3)c2C1  cytotoxicity at 70.5 h      -6.55

Moving on to the next compound.
Quick one: cytotoxicity at 70.5 h for COc1ccccc1C1(O)CCCN(C(=O)c2csc(C(C)=O)c2)C1 (stereo unspecified) ?
-1.27
